# Tested on: Staphylococcus aureus
# test: Antibacterial activity against methicillin-resistant Staphylococcus aureus ATCC 33591 by CLSI method
# Format: functional, organism-based
# condition.context: Staphylococcus aureus, ATCC 33591; read-out: IC50
measurement.label: IC50 (µM)
Record the value in µM, omitting the unit from your answer.

// below: answered compounds
{"sample.smiles": "Brc1cccc(C(c2c[nH]c3ccccc23)c2c[nH]c3ccccc23)c1", "IC50 / µM": 6.3}
{"sample.smiles": "COc1ccc(C(c2c[nH]c3ccccc23)c2c[nH]c3ccccc23)cc1O", "IC50 / µM": 12.3}
{"sample.smiles": "Clc1ccc(C(c2c[nH]c3ccccc23)c2c[nH]c3ccccc23)cc1", "IC50 / µM": 6.12}
{"sample.smiles": "Fc1ccc(C(c2c[nH]c3ccccc23)c2c[nH]c3ccccc23)cc1Br", "IC50 / µM": 9.23}
{"sample.smiles": "Oc1ccc(C(c2c[nH]c3ccc(I)cc23)c2c[nH]c3ccc(I)cc23)cc1", "IC50 / µM": 1.15}

Reported IC50 ( `COc1cc(C(c2c[nH]c3ccc(I)cc23)c2c[nH]c3ccc(I)cc23)ccc1O` ) = 2.11

Reported IC50 ( `COc1ccc(C(c2c[nH]c3ccccc23)c2c[nH]c3ccccc23)cc1Br` ) = 31.5
